B1: glmS ribozyme (parent)
chain: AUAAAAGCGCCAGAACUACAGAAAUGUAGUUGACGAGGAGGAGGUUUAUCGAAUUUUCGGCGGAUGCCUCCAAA

variants of: B1; test: self-cleavage kobs at 2500 uM GlcN6P; higher = faster cleavage; RNA array; settings: with glucosamine-6-phosphate
Variants at the floor of the assay were thinned out.
The following variants are listed with their measured self-cleavage kobs at 2500 uM GlcN6P values.
assayReadout: self-cleavage kobs at 2500 uM GlcN6P

| changes | assayReadout | valueReported |
| --- | --- | --- |
| G13U G40A A53G | self-cleavage kobs at 2500 uM GlcN6P | 0.000153 s⁻¹ |
| G35C U56G | self-cleavage kobs at 2500 uM GlcN6P | < 1e-05 s⁻¹ |
| A15U A39G G51A | self-cleavage kobs at 2500 uM GlcN6P | < 1e-05 s⁻¹ |
| A6G U30G G59U | self-cleavage kobs at 2500 uM GlcN6P | < 1e-05 s⁻¹ |
| A33G G40C G41C G43A U49A | self-cleavage kobs at 2500 uM GlcN6P | < 1e-05 s⁻¹ |
| A12C A42G | self-cleavage kobs at 2500 uM GlcN6P | 0.0085 s⁻¹ |
| C50G U57A | self-cleavage kobs at 2500 uM GlcN6P | 6.05e-05 s⁻¹ |
| G40A U57G | self-cleavage kobs at 2500 uM GlcN6P | < 1e-05 s⁻¹ |
| G40C C70G | self-cleavage kobs at 2500 uM GlcN6P | 0.000163 s⁻¹ |
| G13A G43C U65G | self-cleavage kobs at 2500 uM GlcN6P | < 1e-05 s⁻¹ |
| C10U | self-cleavage kobs at 2500 uM GlcN6P | 2.39e-05 s⁻¹ |
| G9A A53C | self-cleavage kobs at 2500 uM GlcN6P | < 1e-05 s⁻¹ |
| C11U A14U | self-cleavage kobs at 2500 uM GlcN6P | 0.00104 s⁻¹ |
| A39G U47G C68G | self-cleavage kobs at 2500 uM GlcN6P | 5.94e-05 s⁻¹ |
| A12U A33C G43A C67U | self-cleavage kobs at 2500 uM GlcN6P | < 1e-05 s⁻¹ |
| G66A C67G | self-cleavage kobs at 2500 uM GlcN6P | 0.00281 s⁻¹ |
| C16U A33C | self-cleavage kobs at 2500 uM GlcN6P | 8.5e-05 s⁻¹ |
| A15G G40A A53G | self-cleavage kobs at 2500 uM GlcN6P | 0.00292 s⁻¹ |
| G29A U30G A52G | self-cleavage kobs at 2500 uM GlcN6P | 0.000399 s⁻¹ |
| G7C A42G G59U | self-cleavage kobs at 2500 uM GlcN6P | < 1e-05 s⁻¹ |
| A14G G32U U55G | self-cleavage kobs at 2500 uM GlcN6P | 0.000962 s⁻¹ |
| A6C C8A | self-cleavage kobs at 2500 uM GlcN6P | < 1e-05 s⁻¹ |
| G7A U30C A64C | self-cleavage kobs at 2500 uM GlcN6P | < 1e-05 s⁻¹ |
| A33C G40C A52G G63A | self-cleavage kobs at 2500 uM GlcN6P | < 1e-05 s⁻¹ |
| G13U A42U | self-cleavage kobs at 2500 uM GlcN6P | < 1e-05 s⁻¹ |
| A12G A53U C67U | self-cleavage kobs at 2500 uM GlcN6P | 0.00011 s⁻¹ |
| C10A A15C U46A C61U U65C | self-cleavage kobs at 2500 uM GlcN6P | < 1e-05 s⁻¹ |
| A33U G40C U46G C50U | self-cleavage kobs at 2500 uM GlcN6P | < 1e-05 s⁻¹ |
| A24C G26U G40U | self-cleavage kobs at 2500 uM GlcN6P | 0.00202 s⁻¹ |
| A15U C16G | self-cleavage kobs at 2500 uM GlcN6P | 0.000786 s⁻¹ |
| C8A A36C | self-cleavage kobs at 2500 uM GlcN6P | < 1e-05 s⁻¹ |
| U46G A53C C67U | self-cleavage kobs at 2500 uM GlcN6P | 0.000252 s⁻¹ |
| A12G C16U C67U | self-cleavage kobs at 2500 uM GlcN6P | 0.000252 s⁻¹ |
| G32A C70A | self-cleavage kobs at 2500 uM GlcN6P | 8.73e-05 s⁻¹ |
| A12U C68A | self-cleavage kobs at 2500 uM GlcN6P | 2.89e-05 s⁻¹ |
| C16G C71G | self-cleavage kobs at 2500 uM GlcN6P | 0.000114 s⁻¹ |
| U47G C50A A64G U69G | self-cleavage kobs at 2500 uM GlcN6P | 0.000142 s⁻¹ |
| C8G A15G | self-cleavage kobs at 2500 uM GlcN6P | < 1e-05 s⁻¹ |
| A48G U49G A52U A53G | self-cleavage kobs at 2500 uM GlcN6P | < 1e-05 s⁻¹ |
| G29C G43U A48G C71A | self-cleavage kobs at 2500 uM GlcN6P | < 1e-05 s⁻¹ |
| A36C A42G | self-cleavage kobs at 2500 uM GlcN6P | < 1e-05 s⁻¹ |
| A12U A14G A52G | self-cleavage kobs at 2500 uM GlcN6P | 0.00387 s⁻¹ |
| C11G A39G G63U | self-cleavage kobs at 2500 uM GlcN6P | < 1e-05 s⁻¹ |
| G40U G59C C71U | self-cleavage kobs at 2500 uM GlcN6P | < 1e-05 s⁻¹ |
| C8U U45A A48U C50U | self-cleavage kobs at 2500 uM GlcN6P | < 1e-05 s⁻¹ |
| U47A G63U | self-cleavage kobs at 2500 uM GlcN6P | < 1e-05 s⁻¹ |

meta.source: the supplement of paper PMC7125110
